Origin of values: BindingDB's records for patent US9771375

Target chain: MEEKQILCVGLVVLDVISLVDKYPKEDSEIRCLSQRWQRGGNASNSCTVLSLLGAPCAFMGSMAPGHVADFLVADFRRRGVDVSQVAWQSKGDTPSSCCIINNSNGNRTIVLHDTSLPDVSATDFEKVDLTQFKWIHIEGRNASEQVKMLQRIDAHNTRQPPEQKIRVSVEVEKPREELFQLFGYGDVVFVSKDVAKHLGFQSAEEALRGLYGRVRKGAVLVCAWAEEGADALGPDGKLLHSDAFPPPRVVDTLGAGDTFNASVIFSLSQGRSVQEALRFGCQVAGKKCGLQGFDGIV
Endpoint Label: pIC50
When answering, recall that pIC50 equals minus log10 of the concentration in mol/L, and write that number alone.

QUERY: Which pIC50 value is on record for `CCc1nn(-c2ccccc2)c2nc(-c3ccc(N4CCNCC4)cc3)nc(O)c12` ?
RESULT: 5.57
